# target_system: urease (Canavalia ensiformis, UniProt P07374)
# Sequence (P07374 whole entry, looked up): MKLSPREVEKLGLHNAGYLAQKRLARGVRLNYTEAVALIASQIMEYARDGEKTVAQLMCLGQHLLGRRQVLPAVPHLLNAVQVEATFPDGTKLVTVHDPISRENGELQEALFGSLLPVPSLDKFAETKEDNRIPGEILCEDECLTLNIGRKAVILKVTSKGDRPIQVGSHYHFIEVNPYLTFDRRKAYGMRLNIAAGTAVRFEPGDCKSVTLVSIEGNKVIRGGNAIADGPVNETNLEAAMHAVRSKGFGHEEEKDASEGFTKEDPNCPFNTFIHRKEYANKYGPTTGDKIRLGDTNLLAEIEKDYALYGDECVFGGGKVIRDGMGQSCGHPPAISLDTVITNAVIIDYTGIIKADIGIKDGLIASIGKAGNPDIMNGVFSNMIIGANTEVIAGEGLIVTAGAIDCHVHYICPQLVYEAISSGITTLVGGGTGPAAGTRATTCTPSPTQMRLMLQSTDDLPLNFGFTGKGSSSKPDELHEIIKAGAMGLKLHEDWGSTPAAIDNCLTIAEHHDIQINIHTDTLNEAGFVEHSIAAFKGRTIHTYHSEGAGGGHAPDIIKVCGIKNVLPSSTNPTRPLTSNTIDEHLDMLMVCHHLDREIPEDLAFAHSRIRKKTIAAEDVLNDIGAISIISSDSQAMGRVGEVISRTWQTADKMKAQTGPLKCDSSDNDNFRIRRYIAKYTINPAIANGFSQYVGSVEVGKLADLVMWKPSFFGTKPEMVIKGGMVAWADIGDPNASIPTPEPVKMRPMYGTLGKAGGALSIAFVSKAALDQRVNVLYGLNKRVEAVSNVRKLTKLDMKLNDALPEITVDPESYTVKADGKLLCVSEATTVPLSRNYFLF
pKi: −log10 of the molar value.

{"compound": "NC(=O)CS [2-MA, 2-mercaptoacetamide]", "pKi": 2.53}

###

# target_system: urease (Canavalia ensiformis, UniProt P07374)
pIC50: −log10 of the molar value.
measured_quantity: pIC50

{"compound": "CC(=O)NO [AHA, acetohydroxamic acid]", "numeric_value": 2.32}

The measurements presented in this section are drawn from paper PMC7881204.
